The entries below are paired with their reported kon.
measured.on: T1, hIL-18Rα ECD-Fc fusion protein (human, UniProt Q13478 22-329)
T1 construct: extracellular domain; captured on Protein A sensor
T1 sequence (looked up): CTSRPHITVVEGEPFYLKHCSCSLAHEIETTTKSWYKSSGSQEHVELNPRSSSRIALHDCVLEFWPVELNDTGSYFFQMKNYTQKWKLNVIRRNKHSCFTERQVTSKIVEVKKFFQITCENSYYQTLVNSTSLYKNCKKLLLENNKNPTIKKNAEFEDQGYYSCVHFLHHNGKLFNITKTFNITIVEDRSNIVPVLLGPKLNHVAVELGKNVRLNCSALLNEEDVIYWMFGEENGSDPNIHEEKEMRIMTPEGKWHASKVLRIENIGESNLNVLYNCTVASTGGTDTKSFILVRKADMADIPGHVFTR
protocol: BLI (Octet RED96), hIL-18Rα ECD-Fc on Protein A sensor
observed.property: kon (M⁻¹ s⁻¹)

| binder | unit.annotation | number |
| --- | --- | --- |
| IL-18 variant polypeptide LM2 (ligand, soluble, E. coli-made) YFPKLRSKLSVIRNLNDQVLFIDQGNRPLFEDMTDSDCRDNAPRTIFIISMYKLSGSRGMAVTISVKCEKISTLSCENKIISFKEMNPPDVIKDTKSDIIFFQRSVPGHDNKMQFESSSYEGYFLACEKERDLFKLILKKEDELGDRSIMFTVQNED | M⁻¹ s⁻¹ | 1.37e+06 |
| IL-18 variant polypeptide M18 (ligand) YFPKLRSKLSVIRNLNDQVLFIDQGNRPLFEDMTDSDCRDNAPRTIFIISMYKSSRRRGMAVTISVKCEKISTLSCENKIISFKEMNPPDGIKDTKSDIIFFQSSVPGHDNKMQFESSSYEGYFLACEKERDLFKLILKKEDELGDRSIMFTVQNED | M⁻¹ s⁻¹ | 404000 |
| IL-18 variant polypeptide MM5 (ligand, soluble, E. coli-made) YFGKLGSKLSVIRNLNDQVLFIDQGNRPLFEDMTDSDCRDNAPRTIFIISMYKLSTERGMAVTISVKCEKISTLSCENKIISFKEMNPPDGIKDTKSDIIFFQSSVPGHDNKMQFESSSYEGYFLACEKERDLFKLILKKEDELGDRSIMFTVQNED | M⁻¹ s⁻¹ | 743000 |
| IL-18 variant polypeptide M38 (ligand) YFPKLSSKLSVIRNLNDQVLFIDQGNRPLFEDMTDSDCRDNAPRTIFIISMYKWSGARGMAVTISVKCEKISTLSCENKIISFKEMNPPDVIKDTKSDIIFFQISVPGHDNKMQFESSSYEGYFLACEKERDLFKLILKKEDELGDRSIMFTVQNED | M⁻¹ s⁻¹ | 278000 |
| IL-18 variant polypeptide M29 (ligand) YFPKLMSKLSVIRNLNDQVLFIDQGNRPLFEDMTDSDCRDNAPRTIFIISMYKFSDRRGMAVTISVKCEKISTLSCENKIISFKEMNPPDPIKDTKSDIIFFQRSVPGHDNKMQFESSSYEGYFLACEKERDLFKLILKKEDELGDRSIMFTVQNED | M⁻¹ s⁻¹ | 730000 |
| IL-18 variant polypeptide M2 (ligand) YFSKLKSKLSVIRNLNDQVLFIDQGNRPLFEDMTDSDCRDNAPRTIFIISMYKWSPDRGMAVTISVKCEKISTLSCENKIISFKEMNPPDGIKDTKSDIIFFQTSVPGHDNKMQFESSSYEGYFLACEKERDLFKLILKKEDELGDRSIMFTVQNED | M⁻¹ s⁻¹ | 4090 |
| IL-18 variant polypeptide M13 (ligand) YFPKLKSKLSVIRNLNDQVLFIDQGNRPLFEDMTDSDCRDNAPRTIFIISMYKQSIWRGMAVTISVKCEKISTLSCENKIISFKEMNPPDNIKDTKSDIIFFQRSVPGHDNKMQFESSSYEGYFLACEKERDLFKLILKKEDELGDRSIMFTVQNED | M⁻¹ s⁻¹ | 327000 |
